# test: qHTS of pediatric cancer cell lines to identify multiple opportunities for drug repurposing: Primary screen for Saos-2 cells (AID 1347097); note: nearly all actives have a fitted effect of over 40% in size
# experimental.conditions: Saos-2 viability, CellTiter-Glo ATP luminescence, 48 h; series mostly up to 46 µM
Inconclusive results are not listed. Active and inactive are the calls of the source. Calls come from the whole dose curve; as a rule, active = well fitted cell-killing curve with a large enough effect; inconclusive = small, poorly fitted or top-dose-only effect; inactive = no such curve, though single readings can be large or run the other way. Residues, ends and D or L forms follow the SMILES beside them. *: point of attachment. Cbz = O=C(OCc1ccccc1)*
Returns: one label drawn from active, inactive

Dear all, I need the recorded test outcome for O=C(NCc1ccccc1)[C@H](Cc1ccccc1)NC(=O)[C@@H]1O[C@@H]1C(=O)NCCc1ccc(O)cc1 , thank you.
active

Dear all, I need the recorded test outcome for COc1cc(CCc2cc(NC(=O)c3ccc(N4C[C@@H](C)N[C@@H](C)C4)cc3)n[nH]2)cc(OC)c1 , thank you.
active

Dear all, I need the recorded test outcome for COc1cc(C=CC(=O)CC(=O)C=Cc2ccc(O)c(OC)c2)ccc1O , thank you.
active

Dear all, I need the recorded test outcome for C=C1C[C@@]2(O)O[C@@]3(C[C@H]2C(C)C)[C@H](C)CC[C@H]13 , thank you.
inactive

Dear all, I need the recorded test outcome for COc1cc2c(cc1O)CCC1C2CC[C@@]2(C)C1CC[C@@H]2O (some centres undefined) , thank you.
active

Dear all, I need the recorded test outcome for O=C1CSC(=O)N1C(CCc1ccncc1)COc1ccc(-c2cccc([N+](=O)[O-])c2)cc1 (centres undefined) , thank you.
inactive

Dear all, I need the recorded test outcome for O=C(c1ccc(F)cc1)N1CCC[C@H](c2nc(-c3ccc(F)cc3)no2)C1 , thank you.
inactive

Dear all, I need the recorded test outcome for CC(C)C[C@@H](C=O)NC(=O)[C@H](CC(C)C)NC(=O)[C@H](CC(C)C)NC(=O)OCc1ccccc1 (Cbz-Leu-Leu-Leu-aldehyde) , thank you.
active

Dear all, I need the recorded test outcome for O=C1c2c(O)cccc2[C@@H]([C@@H]2O[C@H](CO)[C@@H](O)[C@H](O)[C@H]2O)c2cc(CO)cc(O)c21 , thank you.
inactive

Dear all, I need the recorded test outcome for C[C@@H](NCc1cc2ccccc2[nH]1)c1cccc2ccccc12 , thank you.
inactive

Dear all, I need the recorded test outcome for CCCCCCCCCCCCc1ccc(S(=O)(=O)Nc2nncs2)cc1 , thank you.
active

Dear all, I need the recorded test outcome for C=CC(=O)Nc1ccc2ncnc(Nc3ccc(OCc4cccc(F)c4)c(Cl)c3)c2c1 , thank you.
active

Dear all, I need the recorded test outcome for CC(C)N1[N]C(=C2C=c3cc(O)ccc3=N2)c2c(N)ncnc21 , thank you.
active

Dear all, I need the recorded test outcome for COc1cc2c(cc1OC)[C@@H]1C(=O)c3ccc4c(c3O[C@@H]1CO2)C=CC(C)(C)O4 , thank you.
active

Dear all, I need the recorded test outcome for c1ccc(CNc2nc(NCc3ccccc3)c3ccccc3n2)cc1 , thank you.
active

Dear all, I need the recorded test outcome for NC(=O)Nc1cc(-c2ccc(CN3CCOCC3)cc2)sc1C(N)=O , thank you.
active

Dear all, I need the recorded test outcome for Cc1cc(-c2nnc3n2CCCCC3)c(C)n1-c1ccccc1 , thank you.
inactive

Dear all, I need the recorded test outcome for CCOc1cc2c(c(F)c1OCC)C(=N)N(CC(=O)c1cc(N3CCOCC3)c(OC)c(C(C)(C)C)c1)C2 , thank you.
active

Dear all, I need the recorded test outcome for O=c1c(O)c(-c2ccc(O)c(O)c2)oc2cc(O)ccc12 , thank you.
active

Every entry's value here was drawn from PubChem BioAssay (NCATS).
